Cited source for all entries: the RNAGym collection of RNA variant scans (doi:10.7554/elife.80360)

B1: CPEB3 Ribozyme (parent)
chain: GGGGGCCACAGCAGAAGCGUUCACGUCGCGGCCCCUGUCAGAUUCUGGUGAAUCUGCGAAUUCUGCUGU

# Variants of: B1
# Test method notes: self-cleavage, relative activity (ratio to wild type); higher = more cleavage; co-transcriptional
I'd be grateful if you could share measured self-cleavage for these entries.
Give bare numbers.

{"Mutation string": "A16U U43G", "Measured metric": "self-cleavage", "Test value": 0.395}
{"Mutation string": "A16U U44C", "Measured metric": "self-cleavage", "Test value": 0.703}
{"Mutation string": "G30C G48A", "Measured metric": "self-cleavage", "Test value": 0.694}
{"Mutation string": "U43C U67G", "Measured metric": "self-cleavage", "Test value": 1.01}
{"Mutation string": "G4C G65C", "Measured metric": "self-cleavage", "Test value": 0.242}

Dear reader, for each entry below, please note its self-cleavage.
1. C6U U26A
2. G4C U36C
3. U21G C22A
4. G14C U62C
5. A23G C32A
6. A16G U62C
7. G37C U49G
8. A16C G68C

1: 0.833; 2: 0.589; 3: 0.2; 4: 0.352; 5: 0.436; 6: 0.788; 7: 0.234; 8: 0.454

For each entry beneath this line, provide reported self-cleavage.
1. G41A U43C
2. A15G A59G
3. U44A G56A

[0.416, 0.994, 0.849]

Hey, quick one: what's self-cleavage for each of these?
1. G37U U44G
2. C34A A59U
3. G14A U43G
4. C24G G25C
5. C24A A51G
6. U20C C34A

1: 0.231; 2: 0.436; 3: 0.23; 4: 0.152; 5: 0.754; 6: 0.176
